Overview of recorded pIC50 for various compounds
# tgt: ExoI (Escherichia coli, UniProt P04995)
# Sequence (P04995 whole entry): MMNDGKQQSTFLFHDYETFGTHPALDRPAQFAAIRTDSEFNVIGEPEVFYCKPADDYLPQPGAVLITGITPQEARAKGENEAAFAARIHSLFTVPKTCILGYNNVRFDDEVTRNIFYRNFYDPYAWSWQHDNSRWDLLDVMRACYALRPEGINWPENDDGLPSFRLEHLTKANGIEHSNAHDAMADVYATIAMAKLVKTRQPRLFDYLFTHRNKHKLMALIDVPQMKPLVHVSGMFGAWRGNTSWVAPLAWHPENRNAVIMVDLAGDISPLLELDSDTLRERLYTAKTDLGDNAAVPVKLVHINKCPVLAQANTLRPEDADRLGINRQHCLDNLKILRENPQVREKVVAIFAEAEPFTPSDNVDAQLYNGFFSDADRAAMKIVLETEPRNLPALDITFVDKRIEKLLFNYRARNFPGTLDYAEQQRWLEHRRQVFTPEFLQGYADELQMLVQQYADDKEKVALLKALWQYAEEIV
Where a SMILES comes first, the peptide text is derived from it. [ ]: non-standard residue; d: D form. NMeI = CC[C@H](C)[C@H](NC)C(=O)O; 3Pal = N[C@@H](Cc1cccnc1)C(=O)O
// pIC50 is dimensionless: -log10 of concentration (M)

## Task State the measured pIC50 (ExoI (Escherichia coli, UniProt P04995)) of CC[C@H](C)[C@H](NC(=O)[C@H](CC(=O)O)NC(=O)[C@H](CC(=O)O)NC(=O)[C@H](CC(=O)O)NC(=O)[C@@H](Cc1ccccc1)NC(=O)[C@H](CC(=O)O)NC(C)=O)C(=O)N1CCC[C@H]1C(=O)N[C@@H](Cc1ccccc1)C(=O)O [D-Phe2] (Ac-D[dF]DDDIPF-OH)
## Result 5.46

## Task State the measured pIC50 (ExoI (Escherichia coli, UniProt P04995)) of CC[C@@H](C)[C@@H](NC(=O)[C@H](CC(=O)O)NC(=O)[C@H](CC(=O)O)NC(=O)[C@H](CC(=O)O)NC(=O)[C@H](Cc1ccccc1)NC(=O)[C@H](CC(=O)O)NC(C)=O)C(=O)N1CCC[C@H]1C(=O)N[C@@H](Cc1ccccc1)C(=O)O [D-Ile6] (Ac-DFDDD[dI]PF-OH)
## Result 4.25

## Task State the measured pIC50 (ExoI (Escherichia coli, UniProt P04995)) of CC[C@H](C)[C@@H](C(=O)N1CCC[C@H]1C(=O)N[C@@H](Cc1ccccc1)C(=O)O)N(C)C(=O)[C@H](CC(=O)O)NC(=O)[C@H](CC(=O)O)NC(=O)[C@H](CC(=O)O)NC(=O)[C@H](Cc1ccccc1)NC(=O)[C@H](CC(=O)O)NC(C)=O [NM-Ile6] (Ac-DFDDD[NMeI]PF-OH)
## Result 5.40

Now for another entry.
## Task State the measured pIC50 (ExoI (Escherichia coli, UniProt P04995)) of CC[C@H](C)[C@H](NC(=O)[C@H](CC(=O)O)NC(=O)[C@H](CC(=O)O)NC(=O)[C@H](CC(=O)O)NC(=O)[C@H](Cc1cccnc1)NC(=O)[C@H](CC(=O)O)NC(C)=O)C(=O)N1CCC[C@H]1C(=O)N[C@@H](Cc1ccccc1)C(=O)O [3Pal2] (Ac-D[3Pal]DDDIPF-OH)
## Result 5.13
